Just for reference, paper PMC8842601 is where these values come from.

Test system: MDA-MB-231 cells
experiment-summary: MTT cytotoxicity assay on breast cancer cells
Assay type: cell-based, human
test-conditions: Homo sapiens; MDA-MB-231 breast cancer cells, MTT, 24 h
test-readout: IC50 (µg/mL)
Answer format: numeric, µg/mL implied, no suffix.

Study these solved cases before continuing.
{"molecule": "COc1c(-c2ccc(O)c(O)c2)oc2cc(O)cc(O)c2c1=O", "target-or-system": "MDA-MB-231 cells", "test-value": 14}
{"molecule": "O=c1c(O)c(-c2ccc(O)c(O)c2)oc2c(O)c(O)ccc12", "target-or-system": "MDA-MB-231 cells", "test-value": 22.2}
{"molecule": "COc1cccc2c1C(=O)c1c(O)c3c(c(O)c1C2=O)C[C@@](O)(C(=O)CO)C[C@@H]3O[C@H]1C[C@H](N)[C@H](O)[C@H](C)O1 [doxorubicin, reference compound]", "target-or-system": "MDA-MB-231 cells", "test-value": 9.35}
{"molecule": "CC1=CC23CCC4C(C)(CO)CCCC4(CO)C2CCC1C3 (stereo not shown)", "target-or-system": "MDA-MB-231 cells", "test-value": 12.6}
{"molecule": "O=c1c(O)c(-c2ccc(O)c(O)c2)oc2cc(O)cc(O)c12", "target-or-system": "MDA-MB-231 cells", "test-value": 20.6}

Name the recorded IC50 for C=C(CO)C1CCC2(C)CCC3(C)C(CCC4C5(C)CCC(O)C(C)(C)C5CCC43C)C12 (stereo not drawn) [Compound 2, 30-hydroxylup-20(29)-en-3β-ol] . 11.9

Name the recorded IC50 for C=C(C=O)C1CCC2(C)CCC3(C)C(CCC4C5(C)CCC(O)C(C)(C)C5CCC43C)C12 (stereo not drawn) [Compound 1, 3β-hydroxy-20(29)-en-lupan-30-al] . 26.6

----------
System: RAW264.7 cells
experiment-summary: MTT cytotoxicity assay on normal macrophage cells
Format: cell-based
test-conditions: Mus musculus, RAW264.7 normal murine macrophage cells, 24 h
test-readout: IC50 (µg/mL)
Answer format: numeric, µg/mL implied, no suffix.

Study these solved cases before continuing.
{"compound": "O=c1c(O)c(-c2ccc(O)c(O)c2)oc2c(O)c(O)ccc12", "uom": "µg/mL", "IC50": 15.8}
{"compound": "COc1c(-c2ccc(O)c(O)c2)oc2cc(O)cc(O)c2c1=O", "uom": "µg/mL", "IC50": 28.7}
{"compound": "C=C(C=O)C1CCC2(C)CCC3(C)C(CCC4C5(C)CCC(O)C(C)(C)C5CCC43C)C12 (stereo not drawn) [Compound 1, 3β-hydroxy-20(29)-en-lupan-30-al]", "uom": "µg/mL", "IC50": 16.9}
{"compound": "C=C(CO)C1CCC2(C)CCC3(C)C(CCC4C5(C)CCC(O)C(C)(C)C5CCC43C)C12 (stereo not drawn) [Compound 2, 30-hydroxylup-20(29)-en-3β-ol]", "uom": "µg/mL", "IC50": 22.8}
{"compound": "CC1=CC23CCC4C(C)(CO)CCCC4(CO)C2CCC1C3 (stereo not shown)", "uom": "µg/mL", "IC50": 18.5}

Name the recorded IC50 for COc1cccc2c1C(=O)c1c(O)c3c(c(O)c1C2=O)C[C@@](O)(C(=O)CO)C[C@@H]3O[C@H]1C[C@H](N)[C@H](O)[C@H](C)O1 [doxorubicin, reference compound] . 10.6

Name the recorded IC50 for `O=c1c(O)c(-c2ccc(O)c(O)c2)oc2cc(O)cc(O)c12` . 22.6
